Lab note: AC50 readings collected with Sodium-dependent dopamine transporter (Homo sapiens) for the following molecules.
Sequence (Q01959 whole entry): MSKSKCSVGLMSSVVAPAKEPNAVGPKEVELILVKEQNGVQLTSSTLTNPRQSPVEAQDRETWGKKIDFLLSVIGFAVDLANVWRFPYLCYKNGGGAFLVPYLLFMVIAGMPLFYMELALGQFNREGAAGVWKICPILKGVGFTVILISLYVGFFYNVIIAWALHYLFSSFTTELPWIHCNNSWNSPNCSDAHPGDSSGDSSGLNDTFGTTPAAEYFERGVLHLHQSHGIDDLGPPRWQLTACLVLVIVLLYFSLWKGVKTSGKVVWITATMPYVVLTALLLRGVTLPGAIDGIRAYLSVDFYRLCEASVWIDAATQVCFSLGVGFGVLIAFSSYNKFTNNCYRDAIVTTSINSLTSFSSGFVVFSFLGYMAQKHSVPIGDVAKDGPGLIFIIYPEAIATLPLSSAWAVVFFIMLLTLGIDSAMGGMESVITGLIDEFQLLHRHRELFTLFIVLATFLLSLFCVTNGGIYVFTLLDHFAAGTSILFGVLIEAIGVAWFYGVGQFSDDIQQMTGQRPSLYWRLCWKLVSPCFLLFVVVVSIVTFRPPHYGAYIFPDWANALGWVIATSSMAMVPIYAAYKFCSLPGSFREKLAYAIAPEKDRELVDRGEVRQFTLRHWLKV

### Prompt Any idea what its AC50 is? The molecule is CCCCCCCC/C=C\CCCCCCCC(=O)O
### Response > 30 µM

### Prompt What about NC(=O)N/N=C/c1ccc([N+](=O)[O-])o1 ?
### Response > 30 µM

### Prompt Could you do the same for COc1cccc2c1C(=O)c1c(O)c3c(c(O)c1C2=O)C[C@@](O)(C(=O)CO)C[C@@H]3O[C@H]1C[C@H](N)[C@@H](O)[C@H](C)O1 [EPIRUBICIN] , please?
### Response > 30 µM

### Prompt Follow-up item: Nc1ccc(C(=O)NCC(=O)O)cc1
### Response > 30 µM

### Prompt Can you check CCCCCCCCCCCCCCCC(=O)OC[C@H](COP(=O)([O-])OCC[N+](C)(C)C)OC(=O)CCCCCCCCCCCCCCC [COLFOSCERIL PALMITATE] next?
### Response > 30 µM

### Prompt Let us now turn to CC(C)N1CCN(c2ccc(OCC3COC(Cn4cncn4)(c4ccc(Cl)cc4Cl)O3)cc2)CC1 (stereo not drawn)
### Response 7.14 µM

### Prompt Next: C[C@@H](O)[C@H]1C(=O)N2C(C(=O)O)=C(S[C@@H]3CN[C@H](C(=O)Nc4cccc(C(=O)O)c4)C3)[C@H](C)[C@H]12
### Response > 30 µM

### Prompt Moving on to CC1(C)S[C@@H]2[C@H](NC(=O)[C@H](NC(=O)c3cnc4cccnc4c3O)c3ccccc3)C(=O)N2[C@H]1C(=O)O
### Response > 30 µM

###

Target: UniProt:P35348
Sequence (P35348 whole entry): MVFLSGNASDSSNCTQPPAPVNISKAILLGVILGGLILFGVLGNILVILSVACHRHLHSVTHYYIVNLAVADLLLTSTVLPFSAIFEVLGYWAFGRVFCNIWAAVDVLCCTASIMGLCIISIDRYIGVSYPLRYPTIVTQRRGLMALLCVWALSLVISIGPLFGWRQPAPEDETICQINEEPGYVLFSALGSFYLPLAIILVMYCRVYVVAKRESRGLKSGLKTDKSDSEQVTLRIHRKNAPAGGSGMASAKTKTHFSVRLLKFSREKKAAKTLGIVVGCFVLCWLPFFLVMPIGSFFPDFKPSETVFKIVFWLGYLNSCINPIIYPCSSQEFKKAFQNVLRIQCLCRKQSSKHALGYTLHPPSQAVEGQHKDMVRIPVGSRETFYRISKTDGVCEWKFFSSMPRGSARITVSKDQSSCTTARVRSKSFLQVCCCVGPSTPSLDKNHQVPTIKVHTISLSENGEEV
Assay type: functional, cell-based
Quick reference for AC50 among some molecules

### Prompt Recorded AC50 for O=NN(CCCl)C(=O)NCCCl [CARMUSTINE] , please?
### Response > 30 µM

### Prompt Now give it for Cc1ccc2c([nH]c(=O)c3c(=O)cc(C(=O)OCCC(C)C)oc32)c1C too.
### Response > 30 µM

### Prompt Queued: CC1(C)S[C@@H]2[C@H](NC(=O)[C@H](NC(=O)c3cnc4cccnc4c3O)c3ccccc3)C(=O)N2[C@H]1C(=O)O [APALCILLIN]
### Response > 30 µM

### Prompt Likewise for CN1CCC(N(Cc2cccs2)c2ccccc2)CC1 [THENALIDINE] ?
### Response 23.5 µM

### Prompt And the next one, Nc1ccc(C(=O)NCC(=O)O)cc1 [AMINOHIPPURIC ACID] ?
### Response > 30 µM

### Prompt And what about the molecule Cc1cn(-c2cc(NC(=O)c3ccc(C)c(Nc4nccc(-c5cnccn5)n4)c3)cc(C(F)(F)F)c2)cn1 [RADOTINIB] ?
### Response > 30 µM

### Prompt And the next one, CC(C)(Oc1ccc(C(=O)c2ccc(Cl)cc2)cc1)C(=O)O [FENOFIBRIC ACID] ?
### Response > 30 µM

### Prompt Now consider O=C1Nc2ccccc2C1(c1ccc(O)cc1)c1ccc(O)cc1 [OXYPHENISATINE] and answer again.
### Response > 30 µM

---
### Prompt Given the entry N[C@@H](Cc1ccc(N(CCCl)CCCl)cc1)C(=O)O , report its measured AC50.
### Response > 30 µM
